# Lookup of reported binding affinity ratio (IC50 of standard peptide / IC50 of test peptide) keyed by entry
- target-or-test-system: HLA-A*1101 (human)
Answer with a bare number; do not write a unit.

PLTVNEKR (modifications not checked) [HBV POL 98 peptide PLTVNEKR] = -0.0002

Look up and state reported binding affinity ratio (IC50 of standard peptide / IC50 of test peptide) for RSPRRRTPSPR (modifications not checked) [HBV NUC 183 peptide …]
-0.0003

Look up and state reported binding affinity ratio (IC50 of standard peptide / IC50 of test peptide) for PLSYQHFRK (modifications not checked) [HBV POL 2 peptide …]
0.0031

Look up and state reported binding affinity ratio (IC50 of standard peptide / IC50 of test peptide) for PLTVNEKRR (modifications not checked) [HBV POL 98 peptide …]
0.0005

Look up and state reported binding affinity ratio (IC50 of standard peptide / IC50 of test peptide) for PLEEELPR (modifications not checked) [HBV POL 20 peptide PLEEELPR]
-0.0002
